Origin of measurements: ChEMBL document CHEMBL1138409

Below, each of the compounds is paired with its reported bioavailability value.
Test: Oral bioavailability in Sprague-Dawley rat at 2 mg/kg
Type: ADME, organism-based
Conditions: in vivo
Please state the figure in %; there is no need to write the unit.

INSERT INTO measurements (compound, quantity_kind, observed_measurement) VALUES
  ('CCN(CC)CCCC(C)NC(=O)CCCc1cc(-c2cc(Cl)cc(Cl)c2)nn1-c1ccc2ccccc2c1 (configuration not stated)', 'bioavailability', 5);

Now for the compound whose bioavailability we want.
Field bioavailability (entry COC(=O)[C@H](CCCNC(=N)N)NC(=O)CCCc1cc(-c2cc(Cl)cc(Cl)c2)nn1-c1ccc2ccccc2c1 ) reads 0

----------
Target: C-C chemokine receptor type 2 (Homo sapiens)
Sequence (P41597 whole entry): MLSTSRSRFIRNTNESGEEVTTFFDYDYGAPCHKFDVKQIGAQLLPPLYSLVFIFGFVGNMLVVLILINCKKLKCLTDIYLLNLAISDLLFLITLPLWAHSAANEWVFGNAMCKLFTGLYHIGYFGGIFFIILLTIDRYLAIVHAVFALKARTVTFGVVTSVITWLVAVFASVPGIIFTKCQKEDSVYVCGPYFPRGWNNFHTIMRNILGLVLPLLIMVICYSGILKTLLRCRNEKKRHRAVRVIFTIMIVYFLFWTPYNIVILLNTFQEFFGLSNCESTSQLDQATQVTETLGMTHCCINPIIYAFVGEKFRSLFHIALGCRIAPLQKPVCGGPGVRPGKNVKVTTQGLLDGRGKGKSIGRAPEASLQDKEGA
Assay: Displacement of 125I-hMCP1 from CCR2 expressed in human peripheral blood monocytes after 60 mins
Format: cell-based
QUANTITY KIND: pIC50
Keep in mind that pIC50 stands for -log10 of concentration in molar terms.

Known pIC50 results, listed for orientation:
INSERT INTO results (molecule, observed_measurement) VALUES
  ('CCC(C)CC(CCCN(CC)CC)NC(=O)CCOc1cc(-c2cc(Cl)cc(Cl)c2)nn1-c1ccc2ccccc2c1 (stereo not drawn)', 6.97),
  ('CCN(CC)CCCC(C)NC(=O)CCCc1cc(-c2cc(Cl)cc(Cl)c2)nn1-c1ccc2ccccc2c1 (stereo not drawn)', 6.97);

Now for the molecule whose pIC50 we want.
Field pIC50 (entry CCN(CC)CCCC(C)NC(=O)CCOc1cc(-c2cc(Cl)cc(Cl)c2)nn1-c1ccc2ccccc2c1 (stereo not drawn) ) reads 7.18
